Test system: HSC-2 (Oral Cavity Carcinoma)
Assay: combination Emax (second highest fraction inhibited in the dose matrix, 72 h); higher = more inhibition; extreme values may be limits of the assay
Give measured combination Emax for each item. Keep answers brief.
Numbers only.

Cc1c2c(nn1C)CSCc1cc(n(C)n1)CSc1cc(c3ccccc3c1)OCCCc1c(C(=O)O)n(C)c3c-2c(Cl)ccc13 [AZD5991] + C=CCn1c(=O)c2cnc(Nc3ccc(N4CCN(C)CC4)cc3)nc2n1-c1cccc(C(C)(C)O)n1 [AZD1775] (first compound max 1 µM, partner max 1 µM) :: 0.853
Cn1cnc2c(F)c(Nc3ccc(Br)cc3Cl)c(C(=O)NOCCO)cc21 [Selumetinib] + C=CCn1c(=O)c2cnc(Nc3ccc(N4CCN(C)CC4)cc3)nc2n1-c1cccc(C(C)(C)O)n1 [AZD1775] (first compound max 10 µM, partner max 1 µM) :: 0.372
COc1nnc2ccc(N3CCC(c4ccc(OCCN5CCN(C)C(=O)[C@H]5C)cc4)CC3)nn12 [AZD5153] + CCN(CCO)CCCOc1ccc2c(Nc3cc(CC(=O)Nc4cccc(F)c4)[nH]n3)ncnc2c1 [AZD2811] (first compound max 1 µM, 7x7, partner max 1 µM) :: 0.662

The observed combination Emax for COc1cccc(OCCCN)c1-c1cc(Nc2cnc(C#N)cn2)n[nH]1 [Prexasertib] + C[C@@H]1COCCN1C2=NC(=NC(=C2)C3(CC3)[S@](=N)(=O)C)C4=C5C=CNC5=NC=C4 [AZD6738] (first compound max 1 µM, 7x7, partner max 10 µM) when tested with HSC-2 (Oral Cavity Carcinoma) stands at 0.741

###

Tested on: VMRC-LCD (Lung Adenocarcinoma)
Assay: combination Emax (second highest fraction inhibited in the dose matrix, 72 h); higher = more inhibition; extreme values may be limits of the assay
READOUT KIND: combination Emax
One number for each entry.

A selection of reference data follows.
NC1(C(=O)N[C@@H](CCO)c2ccc(Cl)cc2)CCN(c2ncnc3[nH]ccc23)CC1 [Capivasertib] + C[C@@H]1COCCN1C2=NC(=NC(=C2)C3(CC3)[S@](=N)(=O)C)C4=C5C=CNC5=NC=C4 [AZD6738] (first compound max 10 µM, 7x7, partner max 10 µM) :: 0.566
Cc1cc2ncnn2cc1Nc1ncc2c(n1)n(C1CCOCC1)c(=O)n2C [AZD7648] + COc1cc([C@@H]2c3cc4c(cc3[C@@H](O[C@@H]3O[C@@H]5CO[C@@H](C)O[C@H]5[C@H](O)[C@H]3O)[C@H]3COC(=O)[C@H]23)OCO4)cc(OC)c1O [Etoposide] (first compound max 10 µM, 7x7, partner max 10 µM) :: 0.555

Next, consider the following compound.
Value sought: combination Emax, system VMRC-LCD (Lung Adenocarcinoma), item CN(C)CCCOc1ccc(-c2ccc3ncc4c(c3c2)n(C2CCOCC2)c(=O)n4C)cn1 [AZD0156] + O=C(c1cc(Cc2n[nH]c(=O)c3ccccc23)ccc1F)N1CCN(C(=O)C2CC2)CC1 [Olaparib] (first compound max 3 µM, partner max 3 µM) . Result: 0.0443

###

Hi there, I'd appreciate the recorded combination Emax for every entry that follows.
Test system: LOU-NH91 (Squamous Cell Lung Carcinoma)
Assay: combination Emax (second highest fraction inhibited in the dose matrix, 72 h); higher = more inhibition; extreme values may be limits of the assay
Give bare numbers.

Look over these answered cases.
CN(C)CCCOc1ccc(-c2ccc3ncc4c(c3c2)n(C2CCOCC2)c(=O)n4C)cn1 [AZD0156] + C=CCn1c(=O)c2cnc(Nc3ccc(N4CCN(C)CC4)cc3)nc2n1-c1cccc(C(C)(C)O)n1 [AZD1775] (first compound max 1 µM, partner max 1 µM) :: 0.371
Cc1c2c(nn1C)CSCc1cc(n(C)n1)CSc1cc(c3ccccc3c1)OCCCc1c(C(=O)O)n(C)c3c-2c(Cl)ccc13 [AZD5991] + Cc1cc2ncnn2cc1Nc1ncc2c(n1)n(C1CCOCC1)c(=O)n2C [AZD7648] (first compound max 1 µM, 7x7, partner max 10 µM) :: 0.278

Record CC(=O)c1c(C)c2cnc(Nc3ccc(N4CCNCC4)cn3)nc2n(C2CCCC2)c1=O [Palbociclib] + CN(CC[C@H](CSC1=CC=CC=C1)NC2=C(C=C(C=C2)S(=O)(=O)NC(=O)C3=CC=C(C=C3)N4CCC(CC4)[C@H](C5=CC=CC=C5C6=CC=C(C=C6)Cl)O)S(=O)(=O)C(F)(F)F)CCO [AZD4320] (first compound max 10 µM, 7x7, partner max 1 µM) ; system LOU-NH91 (Squamous Cell Lung Carcinoma); combination Emax = 0.618
